- System: SK-OV-3 ovarian
- ASSAY: NCI tumour cell line growth inhibition, 48 h
Each entry below carries its recorded TGI.

Look up TGI for this molecule: "CC1=CC=C2c3ccccc3C=CN2C(=O)C1" > 100 µM

Look up TGI for this molecule: "O=C1C=CC(=O)c2c1cc([N+](=O)[O-])c1ccoc21" 43.6 µM

Look up TGI for this molecule: "NC(=O)c1ccc(NS(=O)(=O)c2ccc(N)cc2)nc1" > 100 µM

Look up TGI for this molecule: "COc1cc(OC)c2ssc3c(OC)cc(OC)c4ssc1c2-c43" > 100 µM

Look up TGI for this molecule: CCN(CC)c1ccc(C2CC(c3cc(OC)c(OC)c(OC)c3)=NN2)cc1 (stereo not given) > 100 µM

Look up TGI for this molecule: "CO/[N+]([O-])=C\C(=O)N/C=C/C(=O)O" > 100 µM

Look up TGI for this molecule: CC1C(=NO)C(C)C(c2ccccc2)N(N=O)C1c1ccccc1 (stereo not given) 22.7 µM

Look up TGI for this molecule: COc1cc(Br)c(CC2(C#N)c3ccccc3C3C(N2C(=O)c2ccccc2)C3(Cl)Cl)cc1OC (stereo not given) > 65.5 µM

Look up TGI for this molecule: "CCN(CC)CC.CCOc1ccc(NC(=O)N=C=[N-])cc1.[CH-]1CCCCC1.[CH-]1CCCCC1.[CH-]1CCCCC1.[Cl-].[Sn+4]" 0.118 µM

Look up TGI for this molecule: COCc1c(CO)cnc(C)c1OC1OC(CO)C(O)C(O)C1O (stereo not given) > 100 µM
